tested on: Blood; assay: Drug level in Homo sapiens (human) whole blood assessed as retention time by UPLC-TOF-MS analysis
Below, each entry is listed alongside its reported Retention_time.
Form entry: value (min) — number only.

Worked examples, 5 molecules total:
[
  {
    "MOLECULE": "CN1CCN(C(=O)OC2c3nccnc3C(=O)N2c2ccc(Cl)cn2)CC1 (stereo not given) [ZOPICLONE]",
    "Retention_time [min]": 3.88
  },
  {
    "MOLECULE": "OCCOCCN1CCN(C(c2ccccc2)c2ccc(Cl)cc2)CC1 (stereo not given) [HYDROXYZINE]",
    "Retention_time [min]": 5.91
  },
  {
    "MOLECULE": "Cc1nnc2n1-c1sc(Br)cc1C(c1ccccc1Cl)=NC2 [BROTIZOLAM]",
    "Retention_time [min]": 6.27
  },
  {
    "MOLECULE": "COc1ccc2c3c1O[C@H]1C(=O)CC[C@@]4(O)[C@@H](C2)N(C)CC[C@]314 [OXYCODONE]",
    "Retention_time [min]": 2.67
  },
  {
    "MOLECULE": "CN(C)CCC=C1c2ccccc2CCc2ccccc21 [AMITRIPTYLINE]",
    "Retention_time [min]": 5.86
  }
]

Q. Recorded Retention_time for CN1CC[C@]23c4c5ccc(O)c4O[C@H]2C(=O)CC[C@H]3[C@H]1C5 [HYDROMORPHONE] , please?
A. 1.84

Q. Then what about the molecule CO[C@]12CC[C@@]3(C[C@@H]1[C@](C)(O)C(C)(C)C)[C@H]1Cc4ccc(O)c5c4[C@@]3(CCN1CC1CC1)[C@H]2O5 [BUPRENORPHINE] ?
A. 5.59

Q. Then what about the molecule COCCCC/C(=N\OCCN)c1ccc(C(F)(F)F)cc1 [FLUVOXAMINE] ?
A. 5.91

Q. Then what about the molecule CCN1CCCC1CNC(=O)c1cc(S(=O)(=O)CC)c(N)cc1OC (stereo not given) [AMISULPRIDE] ?
A. 3.4

Q. Then what about the molecule COc1ccc2c3c1O[C@H]1C(=O)CC[C@H]4[C@@H](C2)N(C)CC[C@]314 [HYDROCODONE] ?
A. 2.96
